Would you kindly list Average reaction (n = 30) for each of these compounds?
Tested on: human skin
protocol_summary: Test for application to human skin (patch test, CTFA Guideline)
Type: in vivo
particulars: {(grade × number of volunteers) × 100}/{maximum grade × total volunteers × number of test}; non-irritation standard value 1.0
Procedure: Each of the ester compounds of Examples 1˜6 were dissolved in a patch base shown in Table 8 to be 1% concentration respectively, to prepare test samples. 20 μl of each test sample was dropped in a Finn Chamber to make a patch, and the patch was attached to antebrachial skin (test region) and fixed with micro tape. The patch was attached for 24 hours, and after removing the patch, the test region was checked with marking pen, and then the region was observed after 1 and 24 hours.
Numbers only.

Would you please look over these solved cases?
COc1cc(CC(=O)Oc2cc(C)ccc2C(C)C)cc(OC)c1OC
0.83
COc1cc(/C=C/C(=O)Oc2cc(C)ccc2C(C)C)cc(OC)c1OC
0.00
COc1cc(/C=C/C(=O)Oc2cc(C(C)C)ccc2C)cc(OC)c1OC
0.42

input: Given the compound COc1cc(CCC(=O)Oc2cc(C(C)C)ccc2C)cc(OC)c1OC , what is its reported Average reaction (n = 30)?
output: 0.00

* * *

Would you kindly list P.I.I. for each of these molecules?
System: rabbit skin
protocol_summary: Test for skin irritation on animals (Draize P.I.I.)
Assay type: in vivo, rabbits
particulars: 1% diluted solution, 0.5 ml, measured 24 and 72 hours after application
Answers are plain numbers.

COc1cc(CCC(=O)Oc2cc(C(C)C)ccc2C)cc(OC)c1OC [Example 6]
0.315

Parameters: items (list). Returns: P.I.I. for each item.
1. COc1cc(/C=C/C(=O)Oc2cc(C(C)C)ccc2C)cc(OC)c1OC [Example 4]
2. COc1cc(CC(=O)Oc2cc(C)ccc2C(C)C)cc(OC)c1OC [Example 1]
3. COc1cc(/C=C/C(=O)Oc2cc(C)ccc2C(C)C)cc(OC)c1OC [Example 3]

output:
0.350
0.375
0.375

* * *

System: human skin
protocol_summary: Test for application to human skin (patch test, CTFA Guideline)
Type: in vivo
particulars: 24 hours later; − = No visible reactions; 1% in patch base, n = 30
Would you kindly list The number of volunteers having reaction, mark − for each of these compounds?
Numbers only.

Would you please look over these solved cases?
COc1cc(CCC(=O)Oc2cc(C(C)C)ccc2C)cc(OC)c1OC [Example 6]
30
COc1cc(/C=C/C(=O)Oc2cc(C)ccc2C(C)C)cc(OC)c1OC [Example 3]
30
COc1cc(CC(=O)Oc2cc(C)ccc2C(C)C)cc(OC)c1OC [Example 1]
28

Please find the next compound below.
input: Given the compound COc1cc(/C=C/C(=O)Oc2cc(C(C)C)ccc2C)cc(OC)c1OC [Example 4] , what is its reported The number of volunteers having reaction, mark −?
output: 29
